target: ζ-opioid receptor (Homo sapiens, UniProt Q9NZT2); experiment: Competition for binding of [3H][Met5]enkephalin (4.0 nM) in nuclear homogenates of HT-29 human colon tumors; design: from tissue; host or cells: HT-29 human colon tumor xenografts grown in athymic nude mice; nuclear (P1) and other subcellular fractions
No end group written: not given here.
ENDPOINT: Ki (nM)
# number only, unit nM dropped from output

query: Quickly give me recorded Ki for YGGFMRGL [[Met^5]enkephalin-Arg^6-Gly^7-Leu^8, [Met^5,Arg^6,Gly^7,Leu^8]-enkephalin]
result: 28.9

###

biological target: ζ-opioid receptor (Homo sapiens, UniProt Q9NZT2); assay: Competition for binding of [3H][Met5]enkephalin (4.0 nM) in nuclear homogenates of HT-29 human colon tumors; set-up: from tissue; host or cells: HT-29 human colon tumor xenografts grown in athymic nude mice; nuclear (P1) and other subcellular fractions
No end group written: not given here.
ENDPOINT: IC50 (nM)
State just the number; it will be interpreted in nM.

query: Fill in IC50 for record YGGFMRGL [[Met^5]enkephalin-Arg^6-Gly^7-Leu^8, [Met^5,Arg^6,Gly^7,Leu^8]-enkephalin]
result: 37.5

###

Biological target: ζ-opioid receptor (Homo sapiens, UniProt Q9NZT2)
Sequence (Q9NZT2 1-677): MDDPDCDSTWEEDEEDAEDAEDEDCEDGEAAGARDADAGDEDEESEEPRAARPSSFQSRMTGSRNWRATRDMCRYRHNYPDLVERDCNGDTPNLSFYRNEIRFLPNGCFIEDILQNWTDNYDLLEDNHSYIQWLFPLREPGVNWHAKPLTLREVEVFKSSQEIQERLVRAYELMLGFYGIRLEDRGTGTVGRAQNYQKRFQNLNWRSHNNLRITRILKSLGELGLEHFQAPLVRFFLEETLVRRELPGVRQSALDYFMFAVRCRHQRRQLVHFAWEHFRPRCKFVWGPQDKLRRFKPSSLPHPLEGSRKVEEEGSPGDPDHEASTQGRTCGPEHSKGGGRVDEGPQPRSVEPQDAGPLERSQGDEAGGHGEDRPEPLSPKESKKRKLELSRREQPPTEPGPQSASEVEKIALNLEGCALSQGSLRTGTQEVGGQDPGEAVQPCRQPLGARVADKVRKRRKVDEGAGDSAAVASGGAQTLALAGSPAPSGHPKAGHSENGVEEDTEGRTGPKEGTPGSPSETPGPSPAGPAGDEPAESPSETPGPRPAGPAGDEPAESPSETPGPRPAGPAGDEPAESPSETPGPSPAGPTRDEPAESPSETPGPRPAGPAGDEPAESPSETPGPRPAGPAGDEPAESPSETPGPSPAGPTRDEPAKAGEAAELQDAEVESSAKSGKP
Experiment: Competition for binding of [3H][Met5]enkephalin (4.0 nM) in nuclear homogenates of HT-29 human colon tumors
Parameters: from tissue; host or cells: HT-29 human colon tumor xenografts grown in athymic nude mice; nuclear (P1) and other subcellular fractions
Conditions: calculated from IC50 by Cheng and Prusoff; read-out: KI
ENDPOINT: pKi
Remember, pKi is on a log scale: it is -log10 of the molar concentration.

query: State, in one line, measured pKi of O=C1CC[C@@]2(O)[C@H]3Cc4ccc(O)c5c4[C@@]2(CCN3CC2CC2)[C@H]1O5 [naltrexone]
result: 7.16
